Origin of values: patent US20250313563A1

Measured target: GSK3b (GST-full length GSK3b) (Homo sapiens (Human), UniProt P49841)
Sequence (P49841 whole entry): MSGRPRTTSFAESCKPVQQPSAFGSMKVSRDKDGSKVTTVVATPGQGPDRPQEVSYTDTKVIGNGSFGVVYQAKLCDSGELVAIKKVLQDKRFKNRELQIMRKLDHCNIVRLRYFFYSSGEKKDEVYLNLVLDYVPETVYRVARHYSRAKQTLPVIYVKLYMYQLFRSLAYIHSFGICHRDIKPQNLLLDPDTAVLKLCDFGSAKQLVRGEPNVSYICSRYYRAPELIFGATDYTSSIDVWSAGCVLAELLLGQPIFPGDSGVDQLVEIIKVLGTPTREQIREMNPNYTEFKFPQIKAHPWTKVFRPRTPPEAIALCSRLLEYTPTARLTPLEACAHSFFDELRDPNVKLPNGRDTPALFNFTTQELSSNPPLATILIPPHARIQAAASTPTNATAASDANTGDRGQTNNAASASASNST
Assay remarks: GSK3b TR-FRET kinase assay
Format: biochemical
Experimental parameters: 1 nM GSK3b, 2 μM ATP, 30 minute preincubation, Table 16; read-out: GSK3-B TR-FRET BIOCHEMICAL (TR-FRET)
Reported property: IC50

compound="CC1(C)CC(=O)C2=C(C1)Nc1n[nH]cc1[C@@]21CCCC(C)(C)C1 [Compound 883846]" measured_target="GSK3b (GST-full length GSK3b) (Homo sapiens (Human), UniProt P49841)" measurement="1000 to 5000 nM"
compound="CCC1(c2cccc(C(F)(F)C(F)(F)F)c2)C2=C(CC(C)(C)CC2=O)Nc2n[nH]cc21 (stereo not drawn) [Compound 948615]" measured_target="GSK3b (GST-full length GSK3b) (Homo sapiens (Human), UniProt P49841)" measurement="≤ 100 nM"
compound="Cc1cc(S(=O)(=O)N2CCC3(CC2)C2=C(CC(C)(C)CC2=O)Nc2n[nH]cc23)n(C)n1 [Compound 947608]" measured_target="GSK3b (GST-full length GSK3b) (Homo sapiens (Human), UniProt P49841)" measurement="≤ 100 nM"
compound="Cc1ccc(S(=O)(=O)N2CCC3(CC2)C2=C(CC(C)(C)CC2=O)Nc2n[nH]cc23)cc1 [Compound 947459]" measured_target="GSK3b (GST-full length GSK3b) (Homo sapiens (Human), UniProt P49841)" measurement="100 to 1000 nM"
compound="CCC1(c2cccc(-c3cc(C)ncc3OC)c2)C2=C(CC(C)(C)CC2=O)Nc2n[nH]cc21 (stereo not drawn) [Compound 945468]" measured_target="GSK3b (GST-full length GSK3b) (Homo sapiens (Human), UniProt P49841)" measurement="100 to 1000 nM"
compound="Cn1ccc(S(=O)(=O)N2CCC[C@]3(CC2)C2=C(CC(C)(C)CC2=O)Nc2n[nH]cc23)n1 [Compound 932660]" measured_target="GSK3b (GST-full length GSK3b) (Homo sapiens (Human), UniProt P49841)" measurement="100 to 1000 nM"
compound="CC[C@]1(c2cccc(-c3cnc4n3CCCC4)c2)C2=C(CC(C)(C)CC2=O)Nc2n[nH]cc21 [Compound 945607]" measured_target="GSK3b (GST-full length GSK3b) (Homo sapiens (Human), UniProt P49841)" measurement="100 to 1000 nM"
compound="CC1(C)CC(=O)C2=C(C1)Nc1n[nH]cc1C21CN(C(=O)OCc2ccccc2)C1 [Compound 889568]" measured_target="GSK3b (GST-full length GSK3b) (Homo sapiens (Human), UniProt P49841)" measurement="1000 to 5000 nM"
compound="CC[C@]1(c2cccc(S(=O)(=O)C3CC3)c2)C2=C(CC(C)(C)CC2=O)Nc2n[nH]c(C(F)(F)F)c21 [Compound 945715]" measured_target="GSK3b (GST-full length GSK3b) (Homo sapiens (Human), UniProt P49841)" measurement="≤ 100 nM"
compound="CCC1(c2cccc(C(F)(F)F)c2)C2=C(Nc3n[nH]cc31)C(C)NC2=O (stereo not drawn) [Compound 917295]" measured_target="GSK3b (GST-full length GSK3b) (Homo sapiens (Human), UniProt P49841)" measurement="1000 to 5000 nM"
compound="C[C@@H]1CCC[C@@]2(C1)C1=C(CC(C)(C)CC1=O)Nc1n[nH]cc12 [Compound 893320]" measured_target="GSK3b (GST-full length GSK3b) (Homo sapiens (Human), UniProt P49841)" measurement="≤ 100 nM"
compound="CC1(C)CC(=O)C2=C(C1)Nc1n[nH]cc1C21CC(c2ccccc2)C1 (stereo not drawn) [Compound 917081]" measured_target="GSK3b (GST-full length GSK3b) (Homo sapiens (Human), UniProt P49841)" measurement="≤ 100 nM"
compound="Cc1cccc(S(=O)(=O)N2CC[C@@]3(C2)C2=C(CC(C)(C)CC2=O)Nc2n[nH]cc23)c1 [Compound 951864]" measured_target="GSK3b (GST-full length GSK3b) (Homo sapiens (Human), UniProt P49841)" measurement="≤ 100 nM"
compound="CC1(C)CC(=O)C2=C(Nc3n[nH]cc3[C@]23CC[C@@H](C(F)(F)F)CC3)C1F (stereo partly drawn) [Compound 917135]" measured_target="GSK3b (GST-full length GSK3b) (Homo sapiens (Human), UniProt P49841)" measurement="100 to 1000 nM"
compound="CCC1(c2cccc(N(C)c3nccc(C)n3)c2)C2=C(CC(C)(C)CC2=O)Nc2n[nH]cc21 (stereo not drawn) [Compound 942642]" measured_target="GSK3b (GST-full length GSK3b) (Homo sapiens (Human), UniProt P49841)" measurement="≤ 100 nM"
